system: UACC-62 melanoma; experiment: NCI-60 one-dose screen, 48 h (100 = growth as untreated, 0 = no growth, -100 = all killed); details: 10 µM unless noted
The panel holds about 83,000 compounds, 20% with a hit somewhere; the sample as a whole holds those more often.
Field: growth. Provide a value for each of the compounds that follow.
Answer format: numeric, % implied, no suffix.

So for COc1cc2c(c(OC)c1OC)C(=O)N[C@@H]1[C@@H](O)[C@@H](O)[C@H](O)C[C@@H]21 , the logged growth turned out to be 94.1

growth measured on COc1ccc2c(c1)c(-c1ccc(-c3cn(C)c4ccc(OC)cc34)[nH]1)cn2C = 5.29

Per the record, COc1ccc2nc(Cl)c(/C=C/C(=O)c3ccc(NC(=O)CSc4nnc(-c5ccc(Cl)c(Cl)c5)n4-c4ccccc4)cc3)cc2c1 has growth of 86.2

What the record says about Cc1cc(N2CCN(C)CC2)nc(NCc2cc(Nc3ccnc4cc(Cl)ccc34)ccc2F)n1 : growth is -59.1

The compound O=P(O)(O)OCC1OC(n2cnc3c(NCc4ccccc4)ncnc32)C(O)C1O (stereo unspecified) showed growth equal to 38.4

Looking up CCN1C(=O)N(CC)C2C1NN=c1s/c(=C\c3ccccc3Br)c(=O)n12 (stereo unspecified) , I see its growth listed as 24.5

Form field growth, entry Cc1ccc(C)n1/C=C/n1c(C)ccc1C : 98.8

# growth of COc1cccc(/C=C/C(=O)c2cc3c(N)c(C(=O)Nc4ccccc4C)sc3nc2C)c1 = 33.6

The reported value for CCN(CC)CCN(CCN(CC)CC)c1ccccc1 in terms of growth is 89.4

Value of growth reported for the compound COc1ccc2[nH]cc(-c3nc(-c4cn(C)c5ccncc45)cs3)c2c1 is 101

compound COc1ccc2nc3cc(Cl)ccc3c(NCCN)c2c1 , growth observed: -71.2

# growth of COc1ccc(Nc2ncc(C(N)=O)c(NCCCNC(=O)C3CCC3)n2)cc1 = 77.8

GET /value?item= COc1ccc(Nc2ncccc2NC(=O)c2cn(Cc3cccc(Oc4ccccc4)c3)nn2)cc1OC &field=growth returns 57.5

Looking up Cc1nc2ccccc2c(/C=C/c2ccc(C(F)(F)F)cc2)c1C(=O)/C=C/c1ccccc1 , I see its growth listed as -39.8

Summary for this compound, O=C(CN1C(=O)/C(=C/c2ccco2)SC1=S)NCCc1c[nH]c2ccc(F)cc12 : growth is 87.8

Lab note: Cc1ccc(O)c(NC(=O)c2ccc(CNc3ccnc(C(F)(F)F)c3)cc2)c1 gave growth of 13.9

growth measured on COc1ccc(Cc2nnc(Nc3nc4ccccc4s3)s2)cc1 = 89.6

Lab note: measured growth of COc1ccc(/C=C/C(=O)c2ccc(Nc3nc(Nc4ccc(F)cc4)nc(Nc4ccc(Cl)cc4)n3)cc2)cc1 was 105

growth in this record for O=S(=O)(c1ccccc1)N1CCCN(c2nc(-c3ccccc3)nc3nc(-c4ccccc4)oc23)CC1 : 102

The value of growth measured for the compound C/C(=N\O)C(=O)NCCCCCC(=O)Nc1ccccc1 turned out to be 94.3

In plain terms, CNC(=O)c1cc(Oc2ccc3nc(NC(=O)Nc4ccc(Cl)c(Cl)c4)sc3c2)ccn1 has a documented growth of 75.8

Item: COC(=O)c1ccc2c(c1)c1c(C)c3ccncc3c(C)c1n2C | growth: 3.04

Sample O=C(Nc1cccc(NC(=O)C2CCCCC2)c1)c1ccccn1 ; growth observed: 96.8

Input COc1cc2c3c(c1O)-c1ccccc1[C@@H]1OC(=O)N(CC2)[C@H]31 . Output growth: 90.1

Entry under test: O=C1NC(=C(Cl)Cl)/C(=N/S(=O)(=O)N2CCCCC2)N1 . Its growth was 46.6

Reported growth of COCC[C@H]1CCC/C=C/[C@@H]2C[C@H](O)C[C@H]2[C@H](O)/C=C/C(=O)O1 : 21.7

Memo: O=C(Nc1ccccc1)c1sc(-c2ccccc2)cc1O , reported growth: 67

response.value for Cc1ccc2[nH]c(-c3ccc(S(C)(=O)=O)cc3)c(/C=N/N=C(N)N)c2c1 (field: growth) = 41.5

// growth value for COc1ccc(/C(C)=C(\c2ccc(Cl)cc2)c2ccc(OCCN3CCCC3)cc2)cc1 : -0.373

For reference, reported growth for COc1cc(-c2nc3occn3c2-c2ccnc(NCCCNS(=O)(=O)c3ccccc3)n2)ccc1F stands at 4.35

growth for N#Cc1nc2c(S(=O)(=O)c3ccccc3)c(N)n(Cc3cccnc3)c2nc1C#N is 85.6

Form field growth, entry CCn1c2ccc(O)cc2c2c(C)c3c[n+](C(C)C)ccc3c(C)c21 : 15.1

Lookup result for CC(=O)c1cc(-c2ccccc2N)n(-c2ccc3c(c2)OCO3)c1C ; measured growth: 25.3

Value of measured growth for the entry Cn1cc(-c2nc(-c3c[nH]c4ccncc34)cs2)c2cc(Br)ccc21 : -86.7

Lab note: O=c1oc2c(cnc3ccccc32)cc1-c1cccs1 gave growth of 101

In plain terms, N=c1sc(Cc2cc(Cl)ccc2Cl)cn1CC(=O)c1ccccc1 has a documented growth of 17.1

Value of measured growth for the entry COc1ccc(-c2cc(C(=O)N3N=C(c4ccc(N)cc4)CC3c3ccccc3)c3ccccc3n2)cc1 (stereo unspecified) : 40.3

Measured growth, COc1ccc(C2=Nc3c/c(=C\c4c(O)[nH]c5cc(Cl)ccc45)ccc3=N2)cc1 : 67.5

Record summary for O=C1C(Cl)=C(NCCN2CCOCC2)C(=O)c2ncccc21 : reported growth = -51.2

Lab note: Cc1ncc(C(=O)Nc2ccc(CN3CCN(C)CC3)c(C(F)(F)F)c2)cc1C#Cc1cnc(N)c2ccncc12 gave growth of -83.8

Kindly note the recorded growth for CCOC(=O)c1n[nH]n2c1nc(=O)c1cnn(C)c12 , which is 106

Taken from PubChem BioAssay (NCI).
